Hi there, I'd appreciate the recorded Raw reads for every entry that follows.
Molecular target: IRAK4 (Homo sapiens, UniProt Q9NWZ3)
Sequence (Q9NWZ3 1-460): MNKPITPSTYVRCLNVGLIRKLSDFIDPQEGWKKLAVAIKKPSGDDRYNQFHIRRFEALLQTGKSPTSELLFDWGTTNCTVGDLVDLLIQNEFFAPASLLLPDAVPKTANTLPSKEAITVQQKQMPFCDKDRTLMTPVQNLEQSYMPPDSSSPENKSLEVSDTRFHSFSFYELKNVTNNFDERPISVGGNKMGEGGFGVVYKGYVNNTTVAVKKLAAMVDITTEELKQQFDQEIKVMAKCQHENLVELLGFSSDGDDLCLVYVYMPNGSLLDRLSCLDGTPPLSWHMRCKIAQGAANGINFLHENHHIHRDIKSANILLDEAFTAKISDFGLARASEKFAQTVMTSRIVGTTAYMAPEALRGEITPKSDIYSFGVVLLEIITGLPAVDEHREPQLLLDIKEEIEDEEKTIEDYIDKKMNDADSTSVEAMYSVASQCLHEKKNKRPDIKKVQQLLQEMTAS
Experiment: mRNA display affinity selection against IRAK4, NGS abundance
Assay type: binding
Design: acids 1-460; NP_057207.2) was purchased from Carna Biosciences; purchased Carna Biosciences (Kobe, Japan)
Conditions: IRAK4 selection pulldown (-); Top100 selection hits, NGS
Just the number.

Recorded Raw reads for SQRWRCRNYQ , please?
267

Item: SVLWKRKIHN
137

Queued: SMLWKRKIWG
237

Now give it for SMERKAITWLWT too.
25

Further, for SMKRQFITWHWT ?
50248

Likewise for SIVWKRRIYR ?
289

Please do the same for SMKRPFITWHWT as well.
12

Field entry: SVCWKRRNCH
22

And then CQRWKRRCYM , what is it?
71

Thanks! And SQRYKRRNYK ?
49

What about SLLWKRRICR ?
21

Then this sequence: SLRWKRRIWS
12

Next record, please: SVLWKRRIWK
2704

Then this sequence: TMLWKRRIYR
3881

Next record, please: RLLWKRRNYQ
33

Entry to check: RLCWKRRNWT
59

Repeat with TMRWKRRNWA
35

Now consider RLLWRRRNYA .
142

Quick one: SLLWKRRVYT
14

// repeat for SQRYRNRNYQ and report
85

What do you have for RTFWRRRRYH ?
52

Item: TQFWKRRNYA
10

What about this sequence? SVFWNRRIYK
21

Param item: ARLWRRRIYQ
66

Next record, please: AMLWKRRLWR
68

Now try RVLWKKRNYA .
26

Subsequent entry: AQRWRRRCYH
68

Field entry: SMLWRRRKYA
10

Try this sequence too: SMHRRYITWRWT
15412

And SLLWKRRVYC ?
76

Please do the same for SVLWKRRIAK as well.
1441

// query: RTYWKRRCYA
444

Then what about the sequence CQCWNRRNWT ?
49

And for SRLWRRRIFQ ?
12

Next: SMLFKRRMYK
26

Subsequent entry: SQLWNRRLYK
79

Follow-up item: CQRIGRRNYS
14

Note, next up: SLLWRRRVYK
6174

Next up: GPVIYNRRIYC
28

Another sequence: SMRRQFITWHWT
12

Another sequence to look at: SQLYKRRIYQ
36

Also RLLWKHRLYA , if possible.
11

What would you report for TQRWRARNYK ?
576

* * *

Molecular target: IRAK4 (Homo sapiens)
Sequence (Q9NWZ3 1-460): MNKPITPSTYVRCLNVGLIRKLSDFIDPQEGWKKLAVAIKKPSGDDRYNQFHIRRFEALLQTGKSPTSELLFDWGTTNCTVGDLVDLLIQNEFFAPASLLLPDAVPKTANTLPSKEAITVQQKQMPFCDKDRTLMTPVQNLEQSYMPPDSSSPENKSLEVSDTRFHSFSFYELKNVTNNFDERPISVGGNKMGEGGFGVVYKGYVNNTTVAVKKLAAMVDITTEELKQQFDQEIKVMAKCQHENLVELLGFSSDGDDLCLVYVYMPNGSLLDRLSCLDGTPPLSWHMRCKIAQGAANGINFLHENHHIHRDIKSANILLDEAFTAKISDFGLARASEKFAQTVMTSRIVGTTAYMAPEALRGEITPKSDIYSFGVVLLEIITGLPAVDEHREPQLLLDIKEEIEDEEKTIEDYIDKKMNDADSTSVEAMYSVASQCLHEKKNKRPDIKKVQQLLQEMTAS
Assay: mRNA display affinity selection against IRAK4, NGS abundance
Assay type: binding
Design: acids 1-460; NP_057207.2) was purchased from Carna Biosciences; purchased Carna Biosciences (Kobe, Japan)
Conditions: IRAK4 selection pulldown (+); Top100 selection hits, NGS
Measurement kind: Raw reads
Lab note: record just the number, no unit beside it.

Please give the measured Raw reads for this sequence: SMLFKRRIYR
15

Next record, please: TLLWKRRNWA
76

Same lookup for SLLWHRRIYC , please.
19

Same question for SLLWKQRVWK please.
525

Input AIRWKNRNYK
95

Further, for SLLWKRRVYT ?
17

Next entry: SQRYKQRCYK
182

How about STYRKRRIWY ?
14

Same question for SLRWKNRNHK please.
62

Moving on to the next sequence: SQLCHRRIYK
12

* * *

Target: TLR10 (Homo sapiens)
Sequence (Q9BXR5 20-576): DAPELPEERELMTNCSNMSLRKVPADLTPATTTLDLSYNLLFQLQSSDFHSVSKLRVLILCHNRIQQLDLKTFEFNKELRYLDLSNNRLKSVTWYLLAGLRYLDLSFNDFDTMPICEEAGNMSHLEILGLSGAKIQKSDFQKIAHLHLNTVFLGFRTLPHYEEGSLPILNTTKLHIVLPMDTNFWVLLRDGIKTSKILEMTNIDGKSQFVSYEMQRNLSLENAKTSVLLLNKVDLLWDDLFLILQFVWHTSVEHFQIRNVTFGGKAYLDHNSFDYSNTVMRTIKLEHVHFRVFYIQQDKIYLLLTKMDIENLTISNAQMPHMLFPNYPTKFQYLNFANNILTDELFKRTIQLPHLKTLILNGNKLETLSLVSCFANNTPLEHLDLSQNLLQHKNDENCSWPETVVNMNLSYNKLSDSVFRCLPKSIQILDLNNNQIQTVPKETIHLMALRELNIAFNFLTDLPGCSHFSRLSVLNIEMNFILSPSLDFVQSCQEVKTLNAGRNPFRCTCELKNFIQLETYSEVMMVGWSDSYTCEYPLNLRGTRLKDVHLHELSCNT
Assay: mRNA display affinity selection against TLR10, NGS abundance
Type: binding
Parameters: Chimera protein (extracellular domain, amino acid 20-576;); Fc (chimera); purchased R&D system #6619-TR-050
Conditions: TLR10 selection pulldown (-); Top100 selection hits, NGS
Measurement kind: Raw reads
Please reply with the value in numeric form only.

Report Raw reads for SVEVWVNQKIRG please.
343

Further, for ASINRYGGNAAS ?
4957

Same thing, different sequence: SVPFPLQRKLVF
141

Same thing, different sequence: ANYHGNVPWSC
56

Moving on to the next sequence: TMQFPLQRRMAI
241

Another sequence to look at: TFLGGNVRAWI
105

What about this sequence? SRIIYMNQSIRG
51

Follow-up entry: SSTVWKLQTICG
55

Follow-up entry: SLELKHIVFH
265

What do you have for GVGNRYGGHAGT ?
107

Now try CVFFPHLNKIAL .
2623

IGRLFVKSS ?
339

How about SITFQTLNKIAY ?
714

Another: SSPNRYGGNVNT
92

Same thing, different sequence: TIRFTNQNKIAF
11292

And then SHYFAFQKKLAF , what is it?
149

Also check VGQVLVKSS
102

Repeat for the following sequence: CESCCYVIDFEF
409

Now consider TLELKAIVFH .
52

Also check TMLFRLQSKLAI
1571

* * *

Target: TLR10 (Homo sapiens)
Sequence (Q9BXR5 20-576): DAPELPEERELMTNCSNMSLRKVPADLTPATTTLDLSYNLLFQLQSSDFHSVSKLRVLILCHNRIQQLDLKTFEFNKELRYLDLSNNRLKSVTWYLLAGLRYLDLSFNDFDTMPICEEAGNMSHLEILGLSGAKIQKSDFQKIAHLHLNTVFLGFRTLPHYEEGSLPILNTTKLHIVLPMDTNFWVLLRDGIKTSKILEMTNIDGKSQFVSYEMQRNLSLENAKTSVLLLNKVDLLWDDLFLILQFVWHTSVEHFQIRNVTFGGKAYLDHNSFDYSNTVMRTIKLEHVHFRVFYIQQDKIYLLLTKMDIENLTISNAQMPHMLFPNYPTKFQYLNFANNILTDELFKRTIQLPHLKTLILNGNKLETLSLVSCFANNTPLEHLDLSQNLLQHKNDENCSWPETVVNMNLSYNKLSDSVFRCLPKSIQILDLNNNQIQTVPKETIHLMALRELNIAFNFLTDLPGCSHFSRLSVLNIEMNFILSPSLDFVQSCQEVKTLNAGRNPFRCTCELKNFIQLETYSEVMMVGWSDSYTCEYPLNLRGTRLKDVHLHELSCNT
Experiment: mRNA display affinity selection against TLR10, NGS abundance
Format: binding
Design: Chimera protein (extracellular domain, amino acid 20-576;); Fc (chimera); purchased R&D system #6619-TR-050
Settings: TLR10 selection pulldown (-); Top100 selection hits, NGS
Assignment: determine reported Raw reads for the given sequences.
Number only, please.

Param readout= Raw reads; system= TLR10 (Homo sapiens); entry= ATIDLQLRRLTL ; returns value.
80

Can you check TILFPLQRRLVV next?
215

Check TMMFPHQRKLAF too.
1056

Would you mind doing IGNVCIRSS as well?
96

Can you check IGRVWVQSS next?
250

Moving on to AEIHAWGLRI
139

Now give it for IGRVMIKSS too.
870

What do you get for TCFSHYLIM ?
237

How about RIETRCYVLH ?
72

// next record SIMFALQQKLLF
226

ASFVIGQLLVN , same question.
66

Repeat with ALKFELLRKVAF
332

Would you mind doing SIWFPLQRKIAA as well?
3115

Can you check SMHYRFLCKIAF next?
117

Now consider TLHFRRQNKIAY .
1314

What do you get for GLVINKRWYVHL ?
64

Now give it for SMLVWKGQSIRG too.
248

Subsequent entry: SLELSRVNVVIH
194

Continue with RSPIPSWG
51

Follow-up entry: IGSVFIKSS
375

IGLVRVVSS , same question.
785

And the next one, STIVFTFQCIKG ?
919

Can you check CIIFVRQNKCAF next?
63

WPGSMARDSIS ?
2179

Could you do the same for AVEFSNAVVM , please?
66

What do you have for TMMFPRLGKVAY ?
351

Moving on to AIYNRYGGNIAS
182

And for TILFSLQNVRAF ?
394

Query SKIIWSNQAIRG next
798

// query: SVVVWHAQPIMG
714

Now consider ALLIKQTNMLYC and answer again.
2188

Next: TNPYGGNITM
1132

Now this one: RMMFHLLNQIAY
427

Also need CMIFHTQLKIAF , thanks.
470

Let us now turn to SFTFALQRRIAY
71

Could you do the same for SICFPLQHKCAY , please?
172

Okay, and SQFNHAMGWYVN ?
156

Repeat with TIELTHAYLH
64

How about SRTNRFGGHMAS ?
995

What do we get for SIVFHLTNKMAF ?
462

// same read-out, input: IGKVYVHSS
110

Also AQMYPIQNKIAF , if possible.
75
